Reported pIC50 is given for each of the following compounds.
tested on: HEK293; experiment: Antiproliferative activity against HEK293 cells assessed as inhibition of cell proliferation incubated for 18 hrs followed by MTT addition for 4 hrs by MTT assay; assay type: cell-based; conditions: Homo sapiens
pIC50: −log10 of the molar value.
valueType: pIC50

>>> df
                              compoundsmiles  observedresult
 0         CCCCCCOP(=O)(O)OCCSC(=S)N1CCCCCC1            4.15
 1      CCCCCCCCCCOP(=O)(O)OCCSC(=S)N1CCCCC1            4.15
 2  CCCCCCCCCCCCCCCCOP(=O)(O)OCCSC(=S)N1CCCCC1          < 4.00
 3            CCCOP(=O)(O)OCCSC(=S)N1CCCCCC1            4.27
 4  CCCCCCCCCCCCCCCCOP(=O)(O)OCCSC(=S)N1CCCC1          < 4.00
 5  CCCCCCCCCCCCCCCCOP(=O)(O)OCCSC(=S)N1CCCCCC1          < 4.00
 6     CCCCCCCCCCOP(=O)(O)OCCSC(=S)N1CCCCCC1            4.15
 7   CCCCCCCCCCOP(=O)(O)OCCSC(=S)N1CCN(C)CC1          < 4.00
 8       CCCCCCOP(=O)(O)OCCSC(=S)N1CCN(C)CC1          < 4.00
 9              CCCOP(=O)(O)OCCSC(=S)N1CCCC1          < 4.00
10       CCCCCCCCCCOP(=O)(O)OCCSC(=S)N1CCCC1          < 4.00
11  CCCCCCCCCCCCCCCCOP(=O)(O)OCCSC(=S)N1CCN(C)CC1          < 4.00
